# TESTED TARGET: recombinant human DPP1 (rhDPP1) (Homo sapiens (Human), UniProt P53634)
# Sequence (P53634 231-394): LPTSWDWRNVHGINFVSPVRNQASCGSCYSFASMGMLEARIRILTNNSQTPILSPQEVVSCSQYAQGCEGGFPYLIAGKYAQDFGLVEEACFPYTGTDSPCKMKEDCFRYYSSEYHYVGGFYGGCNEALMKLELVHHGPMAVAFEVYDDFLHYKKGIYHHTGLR
# Sequence (P53634 25-134): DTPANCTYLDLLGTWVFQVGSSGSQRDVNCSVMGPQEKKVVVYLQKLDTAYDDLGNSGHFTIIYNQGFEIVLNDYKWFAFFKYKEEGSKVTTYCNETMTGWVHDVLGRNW
# Sequence (P53634 395-463): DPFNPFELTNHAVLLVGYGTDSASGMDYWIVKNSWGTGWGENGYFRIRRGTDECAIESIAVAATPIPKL
# TEST: Test A1: Fluorescence assay for recombinant human (RH) DPP1
# Type: biochemical
# SETTINGS: Test A1 (Examples 1-35); rhDPP1 ~50 pM, 100 μM H-Gly-Arg-AMC, pH 5.0, 22° C.
# Description: Test A1: Fluorescence Assay for Recombinant Human (RH) DPP1 The activity of DPP1 was determined by measuring the enzymatic release of aminomethyl coumarin (AMC) from the peptide substrate (H-Gly-Arg-AMC), which leads to an increase in fluorescence intensity at λex=350 nm and λem=450 nm. The assay was carried out in black 384 well plates in a final volume of 50 μl at 22° C. […]
TEST READOUT: DPP1 activity, pIC50

Which DPP1 activity, pIC50 is reported for this compound? "N#C[C@H](Cc1ccc(-c2ccc(F)c(F)c2)cc1)NC(=O)[C@@H]1CNCCCO1"
7.16

Which DPP1 activity, pIC50 is reported for this compound? "CN1C(=O)C(F)(F)c2ccc(-c3ccc(C[C@@H](C#N)NC(=O)[C@@H]4CNCCCO4)cc3)cc21"
7.78

Which DPP1 activity, pIC50 is reported for this compound? "COCCn1c(=O)sc2ccc(-c3ccc(C[C@@H](C#N)NC(=O)[C@@H]4CNCCCO4)cc3)cc21"
8.5

Which DPP1 activity, pIC50 is reported for this compound? "CN1C(=O)CSc2ccc(-c3ccc(C[C@@H](C#N)NC(=O)[C@@H]4CNCCCO4)cc3)cc21"
7.89

Which DPP1 activity, pIC50 is reported for this compound? "N#C[C@H](Cc1ccc(-c2ccc(C(F)(F)F)cc2)cc1)NC(=O)[C@@H]1CNCCCO1"
7.44

Which DPP1 activity, pIC50 is reported for this compound? "CCn1c(=O)oc2c(C)cc(-c3ccc(C[C@@H](C#N)NC(=O)[C@@H]4CNCCCO4)cc3)cc21"
7.67

Which DPP1 activity, pIC50 is reported for this compound? "N#Cc1ccc(-c2ccc(C[C@@H](C#N)NC(=O)[C@@H]3CNCCCO3)cc2)s1"
7.71

Which DPP1 activity, pIC50 is reported for this compound? "N#C[C@H](Cc1ccc(-c2ccc(F)cc2)cc1)NC(=O)[C@@H]1CNCCCO1"
7.37

Which DPP1 activity, pIC50 is reported for this compound? "CC(C)(O)Cn1c(=O)oc2ccc(-c3ccc(C[C@@H](C#N)NC(=O)[C@@H]4CNCCCO4)cc3)cc21"
7.05

Which DPP1 activity, pIC50 is reported for this compound? "Cn1c(=O)sc2ccc(-c3ccc(C[C@@H](C#N)NC(=O)[C@@H]4CNCCCO4)cc3)cc21"
8.62

Which DPP1 activity, pIC50 is reported for this compound? "CN1C(=O)COc2ccc(-c3ccc(C[C@@H](C#N)NC(=O)[C@@H]4CNCCCO4)cc3)cc21"
7.9

Which DPP1 activity, pIC50 is reported for this compound? "N#C[C@H](Cc1ccc(-c2cc(F)c3oc(=O)n(CC(F)F)c3c2)cc1)NC(=O)[C@@H]1CNCCCO1"
8.0

Which DPP1 activity, pIC50 is reported for this compound? "N#Cc1ccc(-c2ccc(C[C@@H](C#N)NC(=O)[C@@H]3CNCCCO3)cc2)cn1"
7.06

Which DPP1 activity, pIC50 is reported for this compound? "N#C[C@H](Cc1ccc(-c2ccc3oc(=O)n(CC(F)F)c3c2)cc1)NC(=O)[C@@H]1CNCCCO1"
8.18

Which DPP1 activity, pIC50 is reported for this compound? "Cn1c(=O)oc2c(Cl)cc(-c3ccc(C[C@@H](C#N)NC(=O)[C@@H]4CNCCCO4)cc3)cc21"
7.87

Which DPP1 activity, pIC50 is reported for this compound? "N#C[C@H](Cc1ccc(-c2ccc3oc(=O)n(CC4CCOCC4)c3c2)cc1)NC(=O)[C@@H]1CNCCCO1"
7.97

Which DPP1 activity, pIC50 is reported for this compound? "N#C[C@H](Cc1ccc(-c2ccc3oc(=O)n(CC(F)(F)F)c3c2)cc1)NC(=O)[C@@H]1CNCCCO1"
8.09

Which DPP1 activity, pIC50 is reported for this compound? "Cn1c(=O)ccc2ccc(-c3ccc(C[C@@H](C#N)NC(=O)[C@@H]4CNCCCO4)cc3)cc21"
7.86

Which DPP1 activity, pIC50 is reported for this compound? "Cc1noc2ccc(-c3ccc(C[C@@H](C#N)NC(=O)[C@@H]4CNCCCO4)cc3)cc12"
7.79

Which DPP1 activity, pIC50 is reported for this compound? "N#C[C@H](Cc1ccc(-c2ccc3oc(=O)n(CC4CC4)c3c2)cc1)NC(=O)[C@@H]1CNCCCO1"
8.2

Which DPP1 activity, pIC50 is reported for this compound? "Cn1c(=O)oc2c(F)cc(-c3ccc(C[C@@H](C#N)NC(=O)[C@@H]4CNCCCO4)cc3)cc21"
8.29

Which DPP1 activity, pIC50 is reported for this compound? "N#C[C@H](Cc1ccc(-c2ccc(S(=O)(=O)N3CCC3)cc2)cc1)NC(=O)[C@@H]1CNCCCO1"
7.67

Which DPP1 activity, pIC50 is reported for this compound? "COCCn1c(=O)oc2ccc(-c3ccc(C[C@@H](C#N)NC(=O)[C@@H]4CNCCCO4)cc3)cc21"
8.09

Which DPP1 activity, pIC50 is reported for this compound? "N#C[C@H](Cc1ccc(-c2ccc3scnc3c2)cc1)NC(=O)[C@@H]1CNCCCO1"
7.21
